# System: sub-genomic HCV RNA replicon
# assay.info: HCV replicon inhibition assay, luciferase reporter in Huh7 ET cells
# Format: cell-based
# experimental.parameters: concentration reducing viral replication by 50%, 72 h
pIC50: −log10 of the molar value.
Collected pIC50 values appear next to each entry.

chemical.structure	tested.system	censor.symbol	pIC50
Oc1ccccc1-c1nnc2sc3c(Cl)c4nn5c(-c6ccccc6O)nnc5sc4c(Cl)c3nn12	sub-genomic HCV RNA replicon	=	4.55
Cc1n[nH]c(=S)n1Nc1nc(SCc2ccccc2)nc2n[nH]c(Cc3nn[nH]n3)c12	sub-genomic HCV RNA replicon	<	4.00
Clc1ccc(Nc2nc(SCc3ccccc3)nc3n[nH]c(Cc4nc5ccccc5s4)c23)cc1	sub-genomic HCV RNA replicon	<	4.00
S=c1[nH]nc(Nc2nc(SCc3ccccc3)nc3n[nH]c(Cc4nn[nH]n4)c23)s1	sub-genomic HCV RNA replicon	<	4.00
COc1cc(C2C(C(=O)Nc3ccc(Cl)c(Cl)c3)=C(C)NC(C)=C2C(=O)Nc2ccc(Cl)c(Cl)c2)ccc1O	sub-genomic HCV RNA replicon	=	4.87
S=c1[nH]n2c(COc3cc(Cl)c(OCc4nnc5sc(=S)[nH]n45)cc3Cl)nnc2s1	sub-genomic HCV RNA replicon	=	5.00
Clc1ccc(OCc2nn3c(CCc4nnc5sc(COc6ccc(Cl)cc6)nn45)nnc3s2)cc1	sub-genomic HCV RNA replicon	=	5.00
O=C(Nc1ccccc1)c1cc(S(=O)(=O)Nc2nc3ncccc3[nH]2)c(SSc2cc(Cl)c(C(=O)Nc3ccccc3)cc2S(=O)(=O)Nc2nc3ncccc3[nH]2)cc1Cl	sub-genomic HCV RNA replicon	<	4.00

----------
Collected pIC50 values appear next to each entry.
# tested.system: WNV NS2B-NS3 proteinase
# assay.info: WNV NS2B-NS3 proteinase activity assay (cross-reactivity)
# experimental.parameters: pyroglutamic acid-Arg-Thr-Lys-Arg-7-amino-4-methylcoumarin substrate
pIC50: −log10 of the molar value.

compound	pIC50
O=C(Nc1ccccc1)c1cc(S(=O)(=O)Nc2nc3ncccc3[nH]2)c(SSc2cc(Cl)c(C(=O)Nc3ccccc3)cc2S(=O)(=O)Nc2nc3ncccc3[nH]2)cc1Cl [Compound 1]	4.66
Cc1n[nH]c(=S)n1Nc1nc(SCc2ccccc2)nc2n[nH]c(Cc3nn[nH]n3)c12 [Compound 3]	4.74
Clc1ccc(Nc2nc(SCc3ccccc3)nc3n[nH]c(Cc4nc5ccccc5s4)c23)cc1 [Compound 5]	4.62
Oc1ccccc1-c1nnc2sc3c(Cl)c4nn5c(-c6ccccc6O)nnc5sc4c(Cl)c3nn12 [Compound 4]	5.43

----------
# Tested on: Huh7 ET cells
# experimental.parameters: read-out: HCV replicon CC90, concentration reducing cell viability by 90%, 72 h
Collected CC90 values appear next to each entry.
measurement.name: CC90

compound	tested.system	recorded.value
S=c1[nH]nc(Nc2nc(SCc3ccccc3)nc3n[nH]c(Cc4nn[nH]n4)c23)s1 [Compound 6]	Huh7 ET cells	> 100 µM
Clc1ccc(Nc2nc(SCc3ccccc3)nc3n[nH]c(Cc4nc5ccccc5s4)c23)cc1 [Compound 5]	Huh7 ET cells	> 100 µM
S=c1[nH]n2c(COc3cc(Cl)c(OCc4nnc5sc(=S)[nH]n45)cc3Cl)nnc2s1 [Compound 7]	Huh7 ET cells	96.3 µM
Clc1ccc(OCc2nn3c(CCc4nnc5sc(COc6ccc(Cl)cc6)nn45)nnc3s2)cc1 [Compound 2]	Huh7 ET cells	22.1 µM
O=C(Nc1ccccc1)c1cc(S(=O)(=O)Nc2nc3ncccc3[nH]2)c(SSc2cc(Cl)c(C(=O)Nc3ccccc3)cc2S(=O)(=O)Nc2nc3ncccc3[nH]2)cc1Cl [Compound 1]	Huh7 ET cells	> 100 µM
COc1cc(C2C(C(=O)Nc3ccc(Cl)c(Cl)c3)=C(C)NC(C)=C2C(=O)Nc2ccc(Cl)c(Cl)c2)ccc1O [Compound 8]	Huh7 ET cells	26.6 µM
Oc1ccccc1-c1nnc2sc3c(Cl)c4nn5c(-c6ccccc6O)nnc5sc4c(Cl)c3nn12 [Compound 4]	Huh7 ET cells	> 100 µM
Cc1n[nH]c(=S)n1Nc1nc(SCc2ccccc2)nc2n[nH]c(Cc3nn[nH]n3)c12 [Compound 3]	Huh7 ET cells	> 100 µM

----------
# tested.system: WNV NS2B-NS3 proteinase
# assay.info: WNV NS2B-NS3 proteinase activity assay (cross-reactivity)
# experimental.parameters: pyroglutamic acid-Arg-Thr-Lys-Arg-7-amino-4-methylcoumarin substrate
measurement.name: IC50

molecule	recorded.value
COc1cc(C2C(C(=O)Nc3ccc(Cl)c(Cl)c3)=C(C)NC(C)=C2C(=O)Nc2ccc(Cl)c(Cl)c2)ccc1O [Compound 8]	21.8 µM
S=c1[nH]n2c(COc3cc(Cl)c(OCc4nnc5sc(=S)[nH]n45)cc3Cl)nnc2s1 [Compound 7]	39.1 µM
S=c1[nH]nc(Nc2nc(SCc3ccccc3)nc3n[nH]c(Cc4nn[nH]n4)c23)s1 [Compound 6]	12.7 µM
Clc1ccc(OCc2nn3c(CCc4nnc5sc(COc6ccc(Cl)cc6)nn45)nnc3s2)cc1 [Compound 2]	> 100 µM

----------
# Tested on: Huh7 ET cells
# experimental.parameters: read-out: HCV replicon CC50, concentration reducing cell viability by 50%, 72 h
measurement.name: CC50

chemical.structure	recorded.value
S=c1[nH]nc(Nc2nc(SCc3ccccc3)nc3n[nH]c(Cc4nn[nH]n4)c23)s1	> 100 µM
Oc1ccccc1-c1nnc2sc3c(Cl)c4nn5c(-c6ccccc6O)nnc5sc4c(Cl)c3nn12	> 100 µM
Clc1ccc(Nc2nc(SCc3ccccc3)nc3n[nH]c(Cc4nc5ccccc5s4)c23)cc1	> 100 µM
O=C(Nc1ccccc1)c1cc(S(=O)(=O)Nc2nc3ncccc3[nH]2)c(SSc2cc(Cl)c(C(=O)Nc3ccccc3)cc2S(=O)(=O)Nc2nc3ncccc3[nH]2)cc1Cl	> 100 µM

----------
# Tested on: NS3/4A R155K
# Assay type: biochemical, HCV genotype 1b, strain HC-J4
# experimental.parameters: fold change in IC50 for the mutant compared to WT
measurement.name: NS3/4A R155K FC

compound	tested.system	recorded.value
S=c1[nH]nc(Nc2nc(SCc3ccccc3)nc3n[nH]c(Cc4nn[nH]n4)c23)s1 [Compound 6]	NS3/4A R155K	2.4
Cc1n[nH]c(=S)n1Nc1nc(SCc2ccccc2)nc2n[nH]c(Cc3nn[nH]n3)c12 [Compound 3]	NS3/4A R155K	15.4
Clc1ccc(Nc2nc(SCc3ccccc3)nc3n[nH]c(Cc4nc5ccccc5s4)c23)cc1 [Compound 5]	NS3/4A R155K	25.4
COc1cc(C2C(C(=O)Nc3ccc(Cl)c(Cl)c3)=C(C)NC(C)=C2C(=O)Nc2ccc(Cl)c(Cl)c2)ccc1O [Compound 8]	NS3/4A R155K	5.7
O=C(Nc1ccccc1)c1cc(S(=O)(=O)Nc2nc3ncccc3[nH]2)c(SSc2cc(Cl)c(C(=O)Nc3ccccc3)cc2S(=O)(=O)Nc2nc3ncccc3[nH]2)cc1Cl [Compound 1]	NS3/4A R155K	9.6
Clc1ccc(OCc2nn3c(CCc4nnc5sc(COc6ccc(Cl)cc6)nn45)nnc3s2)cc1 [Compound 2]	NS3/4A R155K	19.5
Oc1ccccc1-c1nnc2sc3c(Cl)c4nn5c(-c6ccccc6O)nnc5sc4c(Cl)c3nn12 [Compound 4]	NS3/4A R155K	10.4
S=c1[nH]n2c(COc3cc(Cl)c(OCc4nnc5sc(=S)[nH]n45)cc3Cl)nnc2s1 [Compound 7]	NS3/4A R155K	1.6

----------
# Test system: NS3/4A V170A
# assay.info: NS3/4A activity assay, V170A mutant
# Type: biochemical, HCV genotype 1b, strain HC-J4
# experimental.parameters: recombinant V170A mutant, FRET peptide substrate
Hi! Could you tag entries with IC50 below 2000 nM as Yes, and those at or above as No? Much appreciated.

compound	class
O=C(Nc1ccccc1)c1cc(S(=O)(=O)Nc2nc3ncccc3[nH]2)c(SSc2cc(Cl)c(C(=O)Nc3ccccc3)cc2S(=O)(=O)Nc2nc3ncccc3[nH]2)cc1Cl [Compound 1]	Yes
S=c1[nH]n2c(COc3cc(Cl)c(OCc4nnc5sc(=S)[nH]n45)cc3Cl)nnc2s1 [Compound 7]	Yes
COc1cc(C2C(C(=O)Nc3ccc(Cl)c(Cl)c3)=C(C)NC(C)=C2C(=O)Nc2ccc(Cl)c(Cl)c2)ccc1O [Compound 8]	No
Oc1ccccc1-c1nnc2sc3c(Cl)c4nn5c(-c6ccccc6O)nnc5sc4c(Cl)c3nn12 [Compound 4]	Yes
Clc1ccc(Nc2nc(SCc3ccccc3)nc3n[nH]c(Cc4nc5ccccc5s4)c23)cc1 [Compound 5]	No
Clc1ccc(OCc2nn3c(CCc4nnc5sc(COc6ccc(Cl)cc6)nn45)nnc3s2)cc1 [Compound 2]	Yes
S=c1[nH]nc(Nc2nc(SCc3ccccc3)nc3n[nH]c(Cc4nn[nH]n4)c23)s1 [Compound 6]	Yes

----------
Collected pIC50 values appear next to each entry.
# tested.system: furin (Homo sapiens)
# Construct: soluble C-terminally truncated human furin construct in Sf9 insect cells
# assay.info: Furin activity assay (cross-reactivity)
# experimental.parameters: pyroglutamic acid-Arg-Thr-Lys-Arg-7-amino-4-methylcoumarin substrate
pIC50: −log10 of the molar value.

molecule	pIC50
O=C(Nc1ccccc1)c1cc(S(=O)(=O)Nc2nc3ncccc3[nH]2)c(SSc2cc(Cl)c(C(=O)Nc3ccccc3)cc2S(=O)(=O)Nc2nc3ncccc3[nH]2)cc1Cl [Compound 1]	< 4.00
Clc1ccc(Nc2nc(SCc3ccccc3)nc3n[nH]c(Cc4nc5ccccc5s4)c23)cc1 [Compound 5]	< 4.00
Clc1ccc(OCc2nn3c(CCc4nnc5sc(COc6ccc(Cl)cc6)nn45)nnc3s2)cc1 [Compound 2]	< 4.00
COc1cc(C2C(C(=O)Nc3ccc(Cl)c(Cl)c3)=C(C)NC(C)=C2C(=O)Nc2ccc(Cl)c(Cl)c2)ccc1O [Compound 8]	4.57
Oc1ccccc1-c1nnc2sc3c(Cl)c4nn5c(-c6ccccc6O)nnc5sc4c(Cl)c3nn12 [Compound 4]	4.89
S=c1[nH]nc(Nc2nc(SCc3ccccc3)nc3n[nH]c(Cc4nn[nH]n4)c23)s1 [Compound 6]	4.18
Cc1n[nH]c(=S)n1Nc1nc(SCc2ccccc2)nc2n[nH]c(Cc3nn[nH]n3)c12 [Compound 3]	< 4.00
S=c1[nH]n2c(COc3cc(Cl)c(OCc4nnc5sc(=S)[nH]n45)cc3Cl)nnc2s1 [Compound 7]	< 4.00
